test system: C. glabrata 70E; test: MIC determination by AFST-EUCAST standard methodology; type: cell-based; conditions: Nakaseomyces glabratus; C. glabrata 70E; 24 h, visually and spectrophotometrically; read-out: Antifungal activity, expressed as MIC50
Where a name gives a salt, the structure may show the parent alone.
The compounds listed here are annotated with their MIC50.
The reply should contain only the number, in µM.

Observe how each entry below is paired with its result.
N=C(NCCCCCCCCN1CCCCCCCCNC(=N)NC1=O)NCc1ccccc1 [Compound 15a, tri trifluoroacetate] = 40
N=C(NCCCCCCCCN1CCCCCCCCNC(=N)NC1=O)NCC1CC1 [Compound 15c, tri trifluoroacetate] = 40

--- query ---
Input line: Specify reported MIC50 for the compound shown: C=C(C)CNC(=N)NCCCCCCCCN1CCCCCCCCNC(=N)NC1=O [Compound 15d, tri trifluoroacetate]
Output line: 80

----------
The compounds listed here are annotated with their log10 of MIC50.
system: C. krusei ATCC 14243; experiment: MIC determination by AFST-EUCAST standard methodology; assay type: cell-based; conditions: 24 h, visually and spectrophotometrically, read-out: Antifungal activity, expressed as MIC50
Plainly stated, the numbers are log10 of MIC50 given in µM.

CC=CCNC(=N)NCCCCCCCCN1CCCCCCCCNC(=N)NC1=O [Compound 13d] = 0.70
C#CCNC(=N)NCCCCCCCCN1CCCCCCCCNC(=N)NC1=O [Compound 13b] = 1.90
C=C(C)CNC(=N)NCCCCCCCCN1CCCCCCCCNC(=N)NC1=O [Compound 13e] = 1.60
CC(C)=CCNC(=N)NCCCCCCCCNCCCCCCCCNC(=N)N [Compound 12f] = 1.60

Input line: Specify reported log10 of MIC50 for the compound shown: CC(C)=CCNC(=N)NCCCCCCCCN1CCCCCCCCNC(=N)NC1=O [Compound 13f]
Output line: 1.00

Input line: Specify reported log10 of MIC50 for the compound shown: N=C(N)NCCCCCCCCNCCCCCCCCNC(=N)NCC1CC1 [Compound 12c]
Output line: 0.70

Input line: Specify reported log10 of MIC50 for the compound shown: N=C(NCCCCCCCCN1CCCCCCCCNC(=N)NC1=O)NCc1ccccc1 [Compound 13a]
Output line: 1.30

----------
test system: C. parapsilosis 81E; assay: MIC determination by AFST-EUCAST standard methodology; type: cell-based; conditions: Lodderomyces parapsilosis, 24 h, visually and spectrophotometrically, read-out: Antifungal activity, expressed as MIC50
Structures can show the parent of a compound that is named as a salt.
The compounds listed here are annotated with their MIC50.
The reply should contain only the number, in µM.

CC(C)=CCNC(=N)NCCCCCCCCN1CCCCCCCCNC(=N)NC1=O [Compound 15e, tri trifluoroacetate] = 40

Input line: Specify reported MIC50 for the compound shown: N=C(NCCCCCCCCN1CCCCCCCCNC(=N)NC1=O)NCc1ccccc1 [Compound 15a, tri trifluoroacetate]
Output line: 20

Input line: Specify reported MIC50 for the compound shown: C#CCNC(=N)NCCCCCCCCN1CCCCCCCCNC(=N)NC1=O.O=C(O)C(F)(F)F.O=C(O)C(F)(F)F.O=C(O)C(F)(F)F [Compound 15b, tri trifluoroacetate]
Output line: 80

Input line: Specify reported MIC50 for the compound shown: N=C(NCCCCCCCCN1CCCCCCCCNC(=N)NC1=O)NCC1CC1 [Compound 15c, tri trifluoroacetate]
Output line: 40

Input line: Specify reported MIC50 for the compound shown: OC(Cn1cncn1)(Cn1cncn1)c1ccc(F)cc1F [F, fluconazole, reference compound]
Output line: 13
